B1: SMG5 (parent)
chain: TNPDLIIVCAQSSQSLWNRLSVLL

variants of: B1; experiment: protein stability index of a GFP-peptide fusion (GPS, HEK-293T) (PSI 1-6); higher = more stable; conditions: c terminus: a fixed tail appended;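 also: lentivirally expressed fusions sorted by FACS into six bins by GFP to DsRed ratio, PSI derived from sequencing read proportions per bin multiplied by bin number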
endpoint: protein stability index

- sequence data: "TLPDLIIVCAQSSQSLWNRLSVLL"
  protein stability index: 2.99
- sequence data: "TNPDLIIVCDQSSQSLWNRLSVLL"
  protein stability index: 2.01
- sequence data: "TNPDLIRVCAQSSQSLWNRLSVLL"
  protein stability index: 2.02
- sequence data: "TNPDLIIVCAQSSQSLWDRLSVLL"
  protein stability index: 2.97
- sequence data: "TNPDLIIVCAQSSQSLWNRESVLL"
  protein stability index: 3.06

Provide each entry's protein stability index from the list below.
1. TNPDLQIVCAQSSQSLWNRLSVLL
2. TNPDLIIVCANSSQSLWNRLSVLL
3. TNPDLIIVKAQSSQSLWNRLSVLL

Result:
[3.05, 2, 1.98]

This collection of values is drawn from the supplement of paper PMC10567573.
